Biological target: T1, full-length sAPPalpha fragment (UniProt P05067-4 18-612, limits assumed)
T1 construct: domain: sAPPalpha; Bought protein; also called soluble APP alpha; soluble amyloid precursor protein alpha
T1 sequence (P05067 other isoform, or with tags, fused parts or gaps limits assumed): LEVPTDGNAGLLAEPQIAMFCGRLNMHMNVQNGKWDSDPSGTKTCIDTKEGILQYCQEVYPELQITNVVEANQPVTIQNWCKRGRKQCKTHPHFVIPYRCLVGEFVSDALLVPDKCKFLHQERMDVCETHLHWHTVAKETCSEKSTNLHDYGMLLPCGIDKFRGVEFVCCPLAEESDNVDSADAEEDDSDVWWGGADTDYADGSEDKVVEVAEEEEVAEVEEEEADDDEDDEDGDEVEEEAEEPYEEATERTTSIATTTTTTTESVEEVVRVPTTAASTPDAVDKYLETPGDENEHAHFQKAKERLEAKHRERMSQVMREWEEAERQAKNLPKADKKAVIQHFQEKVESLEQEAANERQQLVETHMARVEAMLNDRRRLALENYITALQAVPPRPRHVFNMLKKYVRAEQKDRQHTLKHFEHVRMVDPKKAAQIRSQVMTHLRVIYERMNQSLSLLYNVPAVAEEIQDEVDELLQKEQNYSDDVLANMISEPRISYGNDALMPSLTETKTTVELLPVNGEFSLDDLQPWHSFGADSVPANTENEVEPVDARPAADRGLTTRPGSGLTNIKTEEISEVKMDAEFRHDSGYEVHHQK
Experiment: indirect ELISA, sAPPalpha coated

BINDER: ACI-8039-306H5-Ab1 (antibody, mouse IgG2a, kappa, V domains shown, Murine IgG2a/kappa; also called AC-8039-306H5-Ab1) VH: QVTLKESGPGILKPSQTLSLTCSFSGFSLSTSGMGVGWIRQPSGKGLEWLAHIWWDDDKYYNPSLKSQLTISKDTSRNQIFLKITSVDTADTATYYCVRSLYFDYWGQGTTLTVSS VL: DVVMTQTPLSLPVSLGDQASISCRSSQSLVHSNGNTYLHWYLQKPGQSPKLLIYKVSNRFSGVPDRFSGSGSGTDFTLKISRVEAEDLGVYFCSQSTHVPLTFGAGTKLELKR
binding result: no binding
--
BINDER: ACI-8041-5A2D4-Ab1 (antibody, mouse IgG2a, kappa, V domains shown, Murine IgG2a/kappa) VH: EVQLQQSGPELVKPGASVKISCKTSGYTFTENTMHWVKQIHGKSLEWIGGINPNNGVTNNNQKFEGKATLTVDKSSSTAYMELRSLTSEDSAVYYCARSDYDALYYSMDCWGQGTSVTVSS VL: EIVLTQSPTTMAASPGEKITITCSGSSSIISNYLHWYQQKPGFSPKLLIYRTSNLASGVPTRFSGSGSGTSYSLTIGTMEAEDVATYYCQQGSSIPFTFGSGTKLEIKR
binding result: no binding
